Tested on: 439559-082-T-J2-PDC spheroid viability;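 further: spheroids exposed to compounds for seven days before readout; 100% = DMSO vehicle control viability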
MEASUREMENT PROTOCOL: Anticancer human tumor 439559-082-T-J2-PDC patient-derived colon adenocarcinoma cell line growth inhibition [POLQ]
CONDITIONS USED: second compound 1 µM; first compound 1 µM; stronger effect = lower value; spheroids with HUVEC and MSC
Reported viability, T/C values for the following compounds.
OUTCOME MEASURE: viability, T/C

COMPOUND | OUTCOME MEASURE | REPORTED RESULT
CC(C)n1c(=O)n(C)c2cnc3cc(F)c(-c4ccc(OCCCN5CCCCC5)nc4)cc3c21 + Cc1cccc(N(C)C(=O)C2C(O)CCN2c2nc(C)cc(C(F)(F)F)c2C#N)c1 | viability, T/C | 115%
CC1COCCN1c1cc(C2(O)CC3CCC(C2)O3)c2cnn(-c3ccn[nH]3)c2n1 (stereo not drawn) + Cc1cccc(N(C)C(=O)C2C(O)CCN2c2nc(C)cc(C(F)(F)F)c2C#N)c1 | viability, T/C | 61%
COc1ccc([C@@H](O)c2cc(-c3ncnc4cc(N5CCOCC5)ccc34)c(F)cc2Cl)nn1 + COC1C(OC(N)=O)C(O)C(Oc2ccc3c(O)c(NC(=O)c4ccc(O)c(CC=C(C)C)c4)c(=O)oc3c2C)OC1(C)C | viability, T/C | 87.9%
